details: human;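 note: human cytolytic liver injury, shown by histopathology or by a ratio above 5 of peak ALT or AST elevation to alkaline phosphatase elevation, value counts indexed references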
measurement-name: Hepatotoxicity (cytolytic)

Prompt: Entry Cc1ncc(CSSCc2cnc(C)c(O)c2CO)c(CO)c1O needs its Hepatotoxicity (cytolytic) filled in; supply it.
Completion: 1

Prompt: Entry CCC1(CC)C(=O)NCC(C)C1=O (centres undefined) needs its Hepatotoxicity (cytolytic) filled in; supply it.
Completion: 1

Prompt: Entry Nc1ccc(C(=O)[O-])cc1.[K+] [AMINOBENZOATE POTASSIUM] needs its Hepatotoxicity (cytolytic) filled in; supply it.
Completion: 1

Prompt: Entry CN(C)CCN1C(=O)c2cccc3cc(N)cc(c23)C1=O [AMONAFIDE] needs its Hepatotoxicity (cytolytic) filled in; supply it.
Completion: 0

Prompt: Entry N[C@@H](C(=O)N[C@@H]1C(=O)N2C(C(=O)O)=C(Cl)CS[C@H]12)c1ccccc1 [CEFACLOR ANHYDROUS] needs its Hepatotoxicity (cytolytic) filled in; supply it.
Completion: 1

Prompt: Entry CCOC(=O)C1=C(C)NC(C)=C(C(=O)OC)C1c1cccc(Cl)c1Cl (centres undefined) needs its Hepatotoxicity (cytolytic) filled in; supply it.
Completion: 0

Prompt: Entry Cn1nnnc1SCC1=C(C(=O)O)N2C(=O)[C@@H](NC(=O)[C@H](O)c3ccccc3)[C@H]2SC1 needs its Hepatotoxicity (cytolytic) filled in; supply it.
Completion: 0

Prompt: Entry CCCN1C[C@H](CSC)C[C@@H]2c3cccc4[nH]cc(c34)C[C@H]21 [PERGOLIDE] needs its Hepatotoxicity (cytolytic) filled in; supply it.
Completion: 0

Prompt: Entry OCCN1CCN(CC/C=C2/c3ccccc3Sc3ccc(Cl)cc32)CC1 needs its Hepatotoxicity (cytolytic) filled in; supply it.
Completion: 0
